Numbers sourced from patent US5593985A.

Tested on: Streptococcus faecium 8b
ASSAY PROTOCOL: MIC, standard strain 3
Assay type: cell-based
CONDITION NOTES: Enterococcus faecium; S. faecium 8b; two-fold dilution, Muller Hinton agar, 10^7 CFU/ml, 37° C., 18 hours; read-out: Minimal Inhibitory Concentration(MIC)
QUANTITY MEASURED: MIC (mg/mL)
Express it in mg/mL; write the number only.

Summary for this molecule, CO/N=C(\C(=O)N[C@@H]1C(=O)N2C(C(=O)[O-])=C(C[n+]3ccc(-c4nc(C)cs4)c4c3CCC4)CS[C@H]12)c1csc(N)n1 [Example 25] : MIC is 12.5

Summary for this molecule, CO/N=C(\C(=O)N[C@@H]1C(=O)N2C(C(=O)[O-])=C(C[n+]3ccc(NC=O)c4c3CCC4)CS[C@H]12)c1csc(N)n1 [Example 19] : MIC is 25

Summary for this molecule, CO/N=C(\C(=O)N[C@@H]1C(=O)N2C(C(=O)[O-])=C(C[n+]3cccc4c3CCC4)CS[C@H]12)c1csc(N)n1 [cefpirome, reference compound] : MIC is 25

Summary for this molecule, CCOC(=O)c1cc[n+](CC2=C(C(=O)[O-])N3C(=O)[C@@H](NC(=O)/C(=N\OC)c4csc(N)n4)[C@H]3SC2)c2c1CCC2 [Example 1] : MIC is 25

Summary for this molecule, NC(=O)c1cc[n+](CC2=C(C(=O)[O-])N3C(=O)[C@@H](NC(=O)/C(=N\OCCF)c4csc(N)n4)[C@H]3SC2)c2c1CCC2 [Example 14] : MIC is 25

Summary for this molecule, CCO/N=C(\C(=O)N[C@@H]1C(=O)N2C(C(=O)[O-])=C(C[n+]3ccc(C(N)=O)c4c3CCC4)CS[C@H]12)c1csc(N)n1 [Example 13] : MIC is 50
